From: patent US20210032351A1

# subject_of_test: T1, human EGFRvIII-hFc protein (human, UniProt P00533 25-645)
# T1 construct: extracellular domain; made in HEK293 cells, purified on protein A; also called immunogen A; hFc-tagged EGFRvIII protein; not shown: human IgG Fc fragment (hFc) of the pCpC vector
# assay_name: ELISA, coated EGFRvIII-hFc, antibody 0.1 nM
measured_metric: OD450 nm
Give the figure by itself; no unit, no explanation.

Exercise: Endpoint output: OD450 nm of Murine anti-63A10 (antibody, V domains shown, murine hybridoma antibody; also called 63A10A7) VH: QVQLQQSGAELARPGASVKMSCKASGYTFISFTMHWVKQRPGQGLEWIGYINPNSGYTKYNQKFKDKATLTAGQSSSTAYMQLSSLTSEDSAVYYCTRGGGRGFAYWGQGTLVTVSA VL: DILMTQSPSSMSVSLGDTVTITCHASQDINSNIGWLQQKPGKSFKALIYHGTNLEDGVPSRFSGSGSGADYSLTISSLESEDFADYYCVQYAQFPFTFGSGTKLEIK . Value?
Solution: 0.8
